experiment-description: recombinant UMI read abundance after kanamycin selection (control-corrected) (log10(CPM+1)); higher = more efficient recombination; extreme values may be limits of the assay; sequences stand for … in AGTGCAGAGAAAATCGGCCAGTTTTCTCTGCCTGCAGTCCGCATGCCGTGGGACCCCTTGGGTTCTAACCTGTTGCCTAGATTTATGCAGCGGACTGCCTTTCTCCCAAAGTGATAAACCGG…AGGTTGGTTTCACT; site = the 11-nt donor;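 further: IS621 bridge recombinase in Escherichia coli cells against a fixed T5 target plasmid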
Given measured recombinant UMI read abundance (log10), output yes (1) if it is greater than or equal to 1 and no (0) if not.

{"columns": ["sequence-input", "label-class"],
 "data": [
  ["AGAAAGACATGGACCGGTTTTCCCGGTAATCCGTATTTGCT (site AGAAAGTCTAG)", "no (0)"],
  ["AACCAAGCATGGACCGGTTTTCCCGGTAATCCGTATTTGAG (site AACCAAGCTCT)", "yes (1)"],
  ["TAGAGTCCATGGACCGGTTTTCCCGGTAATCCGTATTTGTA (site TATAGTCCTTA)", "no (0)"],
  ["CCATAAACATGGACCGGTTTTCCCGGTAATCCGTATTTGCT (site CCATAAACTAG)", "yes (1)"],
  ["AGTAACGCATGGACCGGTTTTCCCGGTAATCCGTATTTGGG (site AGTAACGCTCC)", "no (0)"],
  ["GCCACGCCATGGACCGGTTTTCCCGGTAATCCGTATTTGAA (site GCCACGCCTTC)", "no (0)"]
]}

Exam item: decide whether the reported recombinant UMI read abundance (log10) for TGGCCGGCATGGACCGGTTTTCCCGGTAATCCGTATTTGAC (site TGGCCGGCTGA) is at least 1.
no (0)

Exam item: decide whether the reported recombinant UMI read abundance (log10) for ATTGAGACATGGACCGGTTTTCCCGGTAATCCGTATTTGCT (site ATTGAGACTAA) is at least 1.
no (0)

Exam item: decide whether the reported recombinant UMI read abundance (log10) for ATAGTAGCATGGACCGGTTTTCCCGGTAATCCGTATTTGCA (site ATAGTAGCTTG) is at least 1.
yes (1)

Exam item: decide whether the reported recombinant UMI read abundance (log10) for TTAGGTACATGGACCGGTTTTCCCGGTAATCCGTATTTGAC (site TTAGGTACTGT) is at least 1.
yes (1)

----------
So I've got a bunch of sequences here, and I need their recombinant UMI read abundance (log10) values.
experiment-description: recombinant UMI read abundance after kanamycin selection (control-corrected) (log10(CPM+1)); higher = more efficient recombination; extreme values may be limits of the assay; sequences stand for … in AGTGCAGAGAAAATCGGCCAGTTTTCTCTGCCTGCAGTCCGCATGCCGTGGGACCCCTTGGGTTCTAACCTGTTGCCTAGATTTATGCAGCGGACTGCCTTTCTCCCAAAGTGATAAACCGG…AGGTTGGTTTCACT; site = the 11-nt donor
Numbers only.

{"columns": ["sequence-input", "readout-label", "readout-number"],
 "data": [
  ["CAATTCCCATGGACCGGTTTTCCCGGTAATCCGTATTTGAT (site CAATTCCCTAA)", "recombinant UMI read abundance (log10)", 0.00345],
  ["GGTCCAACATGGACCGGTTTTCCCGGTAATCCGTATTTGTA (site GGTCTAACTTA)", "recombinant UMI read abundance (log10)", 0.00385],
  ["GTAGTCGCATGGACCGGTTTTCCCGGTAATCCGTATTTGCC (site GTAGTCGCTTG)", "recombinant UMI read abundance (log10)", 2.39],
  ["GTGATAACATGGACCGGTTTTCCCGGTAATCCGTATTTGGC (site GTGATAACTGC)", "recombinant UMI read abundance (log10)", 2.59],
  ["GCTTGCCCATGGACCGGTTTTCCCGGTAATCCGTATTTGCT (site GCTTGCCCTAC)", "recombinant UMI read abundance (log10)", 0.00338],
  ["CAAAATGCATGGACCGGTTTTCCCGGTAATCCGTATTTGAC (site CAAAATGCTGT)", "recombinant UMI read abundance (log10)", 2.14],
  ["AGCCTTTCATGGACCGGTTTTCCCGGTAATCCGTATTTGTC (site AGCCTTTCTGC)", "recombinant UMI read abundance (log10)", 0],
  ["CAAGCGGCATGGACCGGTTTTCCCGGTAATCCGTATTTGCT (site CAAGCAGCTAG)", "recombinant UMI read abundance (log10)", 0.584],
  ["ACCCGAACATGGACCGGTTTTCCCGGTAATCCGTATTTGTC (site ACTCGAACTGA)", "recombinant UMI read abundance (log10)", 0],
  ["GACAACCCATGGACCGGTTTTCCCGGTAATCCGTATTTGCT (site GACAACCCTAG)", "recombinant UMI read abundance (log10)", 0.00684]
]}

Look up recombinant UMI read abundance (log10) for the entries below, preserving their order.
1. GCCCACACATGGACCGGTTTTCCCGGTAATCCGTATTTGTA (site CCCCACACTTA)
2. GAAGTCGCATGGACCGGTTTTCCCGGTAATCCGTATTTGCG (site GAAGTCGCTCG)
3. ACCTACACATGGACCGGTTTTCCCGGTAATCCGTATTTGGG (site ACCTAGACTCC)
4. AGCCTATCATGGACCGGTTTTCCCGGTAATCCGTATTTGTT (site AGCCTAACTAA)
5. GCATGCCCATGGACCGGTTTTCCCGGTAATCCGTATTTGAT (site GCGTGCCCTAT)
6. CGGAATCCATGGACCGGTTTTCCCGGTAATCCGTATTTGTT (site CGGAATACTAT)
7. GCGGAAACATGGACCGGTTTTCCCGGTAATCCGTATTTGCT (site GCGGAAACTAG)

1.37
0.562
0.00747
0.0449
0.0164
0
2.19

Reported recombinant UMI read abundance (log10), sequence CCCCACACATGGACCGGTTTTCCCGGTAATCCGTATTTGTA (site CCCTACACTTA) : ____
0.0176
